Target: CDK8/Cyclin C (Homo sapiens) (UniProt P49336+P24863)
Test: Inhibition of Alexa647 tracer binding to full length recombinant human His-tagged CDK8/Cyclin C expressed in baculovirus expression system at 5 uM preincubated for 20 mins followed by tracer addition measured after 60 mins by TR-FRET based Lanthascreen assay relative to control
measuredProperty: inhibition (%)

Cc1c(C(=O)Nc2ccc3ccc(=O)oc3c2)nnn1-c1ccc2noc(-c3ccccc3)c2c1 :: 52
Cc1ccc(-c2nc(C)cc(OCC(=O)Nc3ccc(C#N)cc3)n2)cc1 :: -4
CN[C@@H]1C[C@H]2O[C@@](C)([C@@H]1OC)n1c3ccccc3c3c4c(c5c6ccccc6n2c5c31)C(=O)NC4 :: 99
CC(=O)c1ccc(NC(=O)COc2cc(-c3ccccc3)nc3ccc(F)cc23)cc1 :: 10
Cc1cccc(N2CCN(c3ncnc4onc(C)c34)CC2)c1C :: 28

[1] O=C(NC1C2CS(=O)(=O)CC2NN1c1ccc(F)cc1)c1ccc(C(=O)c2ccccc2)cc1 (centres undefined)
[2] CCNc1c(NC(=O)NCc2ccc(C)cc2)c(=O)oc2ccccc12
Record comparison, field inhibition: mark the lower of 1 and 2 . Write the label of whichever entry you select. 2
(2: -3%, 1: 0%)

[I] CN(C)c1ccc(CNC(=O)C2CCN(c3ccc4nncn4n3)CC2)cc1
[II] CCOc1ccc(NC(=O)N2CCCC(c3cccc(C(=O)Nc4cccc(Cl)c4)c3)C2)cc1 (centres undefined)
Between these two entries, I and II , state which has the higher inhibition. Answer format: the label of the selected item. II
